assayed-system: Genome polyprotein (Coxsackievirus B3 (strain Nancy))
assay-info: Competitive inhibition of recombinant Coxsackievirus B3 3C protease expressed in Escherichia coli BL21 (DE3) preincubated with protein followed by addition of NMA-EALFQGPPVK-DNP-rrr-NH2 as substrate measured every 5 mins for 2 hrs by Dixon plot analysis
measured-quantity: Ki
Output should be the measured figure followed by the unit it is expressed in.

Record "O=C(CCCCc1ccc(O)cc1)NNCc1ccc(O)c(O)c1O" has Genome polyprotein (Coxsackievirus B3 (strain Nancy)) Ki equal to 324 nM

====

assayed-system: Genome polyprotein (Coxsackievirus B3 (strain Nancy), UniProt P03313)
Sequence (P03313 1541-1723 limits assumed): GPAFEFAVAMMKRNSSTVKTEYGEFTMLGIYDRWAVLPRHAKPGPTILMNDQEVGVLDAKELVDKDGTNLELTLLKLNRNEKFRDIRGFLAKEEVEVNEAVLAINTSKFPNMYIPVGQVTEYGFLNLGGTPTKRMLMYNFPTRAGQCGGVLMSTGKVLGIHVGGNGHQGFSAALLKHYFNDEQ
assay-info: Inhibition of recombinant Coxsackievirus B3 3C protease expressed in Escherichia coli BL21 (DE3) preincubated for 5 mins followed by addition of NMA-EALFQGPPVK-DNP-rrr-NH2 as substrate measured every 10 mins for 2 hrs by FRET-based enzyme assay
measured-quantity: IC50 (µM)
Supply the numeric figure in µM, leaving out any unit text.

- compound: "NC(CO)C(=O)NNCc1ccc(O)c(O)c1O (configuration not stated) [BENSERAZIDE]"
  measured-quantity: "IC50"
  reported-measurement: 2.4

Moving on to the next compound.
# compound NC(CO)C(=O)N/N=C/c1ccc(O)c(O)c1O (configuration not stated) ; its IC50 = 2.7

====

assayed-system: Genome polyprotein (Coxsackievirus B3 (strain Nancy), UniProt P03313)
assay-info: Inhibition of recombinant Coxsackievirus B3 3C protease expressed in Escherichia coli BL21 (DE3) preincubated for 5 mins followed by addition of NMA-EALFQGPPVK-DNP-rrr-NH2 as substrate measured up to 2 hrs by FRET-based enzyme assay
measured-quantity: pIC50
Expect pIC50 as a plain number equal to -log10 of the molar concentration.

- compound: "CC(C)(C)OC(=O)NC(Cc1ccc(O)cc1)C(=O)NNCc1ccc(O)c(O)c1O (stereo unspecified)"
  pIC50: 6.57

# compound "O=C(CCCc1ccccc1)NNCc1ccc(O)c(O)c1O" ; its pIC50 = 6.47

# compound "O=C(N/N=C/c1ccc(O)c(O)c1O)c1ccc(Cl)cc1" ; its pIC50 = 6.23

# compound "O=C(CCCc1ccc(F)cc1)NNCc1ccc(O)c(O)c1O" ; its pIC50 = 6.40

====

Tested on: Coxsackievirus B3
assay-info: Antiviral activity against Coxsackievirus B3 infected in human HeLa cells at 10 uM measured after 20 to 24 hrs by CCK8 assay
Assay type: functional
measurement-setup: Enterovirus B
measured-quantity: inhibition at 10 µM (%)
Supply the numeric figure in %, leaving out any unit text.

Guide cases for inhibition at 10 µM, answers given:
- smiles-entry: "CCCCC(=O)Oc1c(O)ccc(CNNC(=O)CCCCc2ccc(O)cc2)c1O"
  inhibition at 10 µM / %: 43
- smiles-entry: "CCCCC(=O)Oc1c(O)ccc(CNNC(=O)c2ccc(O)cc2)c1O"
  inhibition at 10 µM / %: 38
- smiles-entry: "CCCCC(=O)Oc1c(O)ccc(/C=N/NC(=O)c2ccc(O)cc2)c1O"
  inhibition at 10 µM / %: 42

Moving on to the next compound.
# compound "CCCCC(=O)Oc1c(O)ccc(/C=N/NC(=O)CCCCc2ccc(O)cc2)c1O" ; its inhibition at 10 µM = 62

====

assayed-system: Genome polyprotein (Coxsackievirus B3 (strain Nancy))
assay-info: Inhibition of recombinant Coxsackievirus B3 C-terminal 6His-tagged 3C protease expressed in Escherichia coli BL21 preincubated for 20 mins followed by addition of fluorogenic peptide as substrate by Cheng-Prusoff equation analysis
measured-quantity: Ki (nM)
Supply the numeric figure in nM, leaving out any unit text.

# compound "CC(=O)/C=C/[C@H](C[C@@H]1CNCC1=O)NC(=O)[C@H](CC(C)C)NC(=O)[C@H](CNC(=O)C(C)(C)C)NC(=O)OCc1ccccc1" ; its Ki = 800
